melting point for assorted compounds

// known answers, use as guide
{"Compound": "O=C(/C=C/c1ccccn1)N1CCc2c([nH]c3ccccc23)C1c1ccc2c(c1)OCO2 (stereo not drawn) [Example 2]", "melting point": "135 to 141 °C"}
{"Compound": "O=C(/C=C/c1ccncc1)N1CCc2c([nH]c3ccccc23)C1c1ccc2c(c1)OCO2 (stereo not drawn) [Example 4]", "melting point": "224 to 225 °C"}

## Task Recorded melting point of O=C(/C=C/c1ccccn1)N1CCc2c([nH]c3ccccc23)C1c1ccccc1 (stereo not drawn) [Example 3] , please.
## Result 130 to 135 °C

## Task Repeat with O=C(/C=C/c1cccnc1)N1CCc2c([nH]c3ccccc23)C1c1ccc2c(c1)CCO2 (stereo not drawn) [Example 5]
## Result 221 to 222 °C

## Task Repeat with CN1CCN(c2ccc(/C=C/C(=O)N3CCc4c([nH]c5ccccc45)[C@H]3c3ccc4c(c3)CCO4)cn2)CC1 [Example 9]
## Result > 260 °C

## Task Repeat with COC(=O)c1ccc(/C=C/C(=O)N2CCc3c([nH]c4ccccc34)[C@H]2c2ccc3c(c2)CCO3)nc1 [Example 11]
## Result > 260 °C
